- SYSTEM_UNDER_TEST: Alpha-2C adrenergic receptor (Homo sapiens)
- EXPERIMENTAL_PROTOCOL: compounds altering alpha2C-coupled GIRK flux – cell-based, HEK293 alpha2C/GIRK1/2, thallium flux, primary screen (AID 624);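 note: slope of fluorescence ratio to pre-addition baseline per second over 15 to 24 s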
- COND: thallium flux BTC fluorescence, at 10 µM, actives lie on both sides
Give measured slope for each item. Keep answers brief.
Form: value (number only, do not type unit).

**Q:** Which slope is listed for COc1ccc(CCN2C(=O)CCC2(C)C(=O)NCc2cccnc2)cc1OC (stereo not drawn) ?
**A:** 0.0059

**Q:** Please do the same for `CNC(=O)c1ccc2nc(NC(C)=O)sc2c1` as well.
**A:** 0.00564

**Q:** Please do the same for `Cc1ccccc1-c1nc(CN2CCC(C(=O)N3CCC(C(N)=O)CC3)CC2)c(C)o1` as well.
**A:** 0.00557

**Q:** Please do the same for `O=C(OCC(=O)c1cccs1)C1=COCCO1` as well.
**A:** 0.00586

**Q:** Please do the same for CCC(CCC(=O)Nc1cccc(C(=O)O)c1)C(=O)O (stereo not drawn) as well.
**A:** 0.00563

**Q:** Please do the same for `Cc1nc2oc3c(NCc4ccccn4)ncnc3c2c2c1COC(C)(C)C2` as well.
**A:** 0.00661

**Q:** Please do the same for `CCN1CCN(C(=O)c2cc3c(=O)n(C)c4ccccc4c3n2C)CC1` as well.
**A:** 0.00682

**Q:** Please do the same for Cc1cc(C)cc(N2C(=O)C3C4C=CC(C4)C3C2=O)c1 (stereo not drawn) as well.
**A:** 0.00599

**Q:** Please do the same for `Cc1onc(-c2ccccc2)c1C(=O)N1CCN(C(=O)c2ccco2)CC1` as well.
**A:** 0.00556

**Q:** Please do the same for `CCOC(=O)N1CCN(C(=O)c2ccc(CS(=O)(=O)c3ccc(OC)cc3)o2)CC1` as well.
**A:** 0.0059

**Q:** Please do the same for CC(CCc1ccccc1)NC(=O)C1CCN(S(=O)(=O)c2cnc[nH]2)CC1 (stereo not drawn) as well.
**A:** 0.00556

**Q:** Please do the same for `COc1ccc(C(=O)NCc2nc3ccccc3[nH]2)cc1OC` as well.
**A:** 0.0061

**Q:** Please do the same for `COc1ccc(S(=O)(=O)Cc2ccc(C(=O)N3CCN(c4ccccc4)CC3)o2)cc1` as well.
**A:** 0.00594

###

Give measured cell count for each item. Keep answers brief.
- EXPERIMENTAL_PROTOCOL: inhibitors of TNFa-induced NFkB p65 translocation, primary screen, imaging, HUVEC, MLSMR starter and 10KST1 sets (AID 438);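 note: compound added about 3h40 before a 20 min TNFalpha stimulation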
- COND: HUVEC TNFa-induced p65 nuclear translocation; measured here: nuclei count (cytotoxicity indicator), at 2.08 µM
Form: value (number only, do not type unit).

**Q:** Which cell count is listed for `Cc1nc(C)c2c(c1C(F)(F)F)-c1ccccc1C2(F)F` ?
**A:** 397

**Q:** Please do the same for `Cc1nc2ccccc2c(=O)n1NC(=O)Nc1ccccc1` as well.
**A:** 592

**Q:** Please do the same for `COCCn1c(CN2CCN(c3ccccc3F)CC2)nc2c1c(=O)n(C)c(=O)n2C` as well.
**A:** 609

**Q:** Please do the same for `COc1ccc(N2CCN(C(=O)CSc3ccccc3)CC2)cc1` as well.
**A:** 393

**Q:** Please do the same for `CC(C)CCSc1nc2c(c(=O)[nH]c(=O)n2C)n1CCCc1ccccc1` as well.
**A:** 618

**Q:** Please do the same for `COCCNC(=O)c1cc2c(-c3ccccc3F)nn(C)c2s1` as well.
**A:** 401
